# System: Avena fatua (AVEFA)
# EXPERIMENT_NOTES: Post-emergence herbicidal activity, glasshouse pot test
# Type: in vivo
# TEST_PARAMETERS: 312 h, rate 250 g/ha, evaluated after 13 days, 100=total damage to plant, 0=no damage to plant
QUANTITY_MEASURED: pest or weed control at 250 g/ha (%)
Answers are plain numbers, in %.

{"columns": ["MOLECULE", "ASSAY_TARGET", "pest or weed control at 250 g/ha / %"],
 "data": [
  ["CCc1ccc(Oc2ccc(C#N)c(Cl)c2)cc1C1=C(O)CCC1=O", "Avena fatua (AVEFA)", 0],
  ["CCc1ccc(Oc2ccc(C(F)(F)F)cc2[N+](=O)[O-])cc1C1=C(O)CCC1=O", "Avena fatua (AVEFA)", 80]
]}

Take each entry in turn and give its pest or weed control at 250 g/ha.
1. CCc1ccc(Oc2ccc3cc(Cl)ccc3n2)cc1C1=C(O)CCC1=O
2. CCc1ccc(Oc2ccc(OC(F)(F)F)cc2)cc1C1=C(O)[C@H]2[C@@H](C1=O)[C@@H]1CC[C@H]2O1
3. CCc1ccc(Oc2cnc3cc(Cl)ccc3n2)cc1C1=C(O)CCC1=O

-- reply
30
100
90

Take each entry in turn and give its pest or weed control at 250 g/ha.
1. CCc1ccc(Oc2ccc(Br)c(Cl)c2)cc1C1=C(O)[C@H]2[C@@H](C1=O)[C@@H]1CC[C@H]2O1
2. CCc1ccc(Oc2ccc(Cl)cc2F)cc1C1=C(O)[C@H]2[C@@H](C1=O)[C@@H]1CC[C@H]2O1
3. CCc1ccc(Oc2ccc(Cl)cc2Cl)cc1C1=C(O)C2C(C1=O)[C@H]1CC[C@@H]2CC1 (stereo partly shown)
4. CCc1ccc(Oc2ccc(C(F)(F)F)cc2[N+](=O)[O-])cc1C1=C(O)C2C(C1=O)[C@H]1CC[C@@H]2CC1 (stereo partly shown)
5. CCc1ccc(Oc2nc3c(Cl)cc(Cl)cc3s2)cc1C1=C(O)CCC1=O
6. O=C1CCC(O)=C1c1cc(Oc2ccc(Cl)cc2)ccc1C1CC1

-- reply
1. 80
2. 90
3. 0
4. 40
5. 0
6. 10
